Values from patent US4851420A

Below, each entry is listed alongside its reported LD50.
Experiment: Toxicity, LD50 mouse
Settings: in vivo, po
The response must be a number in mg/kg with no trailing unit.

{"columns": ["compound", "LD50 [mg/kg]"],
 "data": [
  ["Nc1ccc(Cc2ccc(F)cc2)c(N)n1", 266],
  ["CCOC(=O)Nc1ccc(NCc2ccc(F)cc2)nc1N [Flupirtin, reference compound]", 633],
  ["Nc1ccc(Cc2ccccc2F)c(N)n1", 276]
]}

Consider the additional compound presented here.
For record `Nc1ccc(Cc2c(F)cccc2Cl)c(N)n1` the listed LD50 is 285

====

Assay: Toxicity, LD50 rat
Conditions: in vivo, po
Consider the following molecules and their measured LD50 readings.
The figure you give is taken to be in mg/kg; do not add the unit.

Form: molecule = Nc1ccc(Cc2ccc(F)cc2)c(N)n1 [D 17033, 2,6-diamino-3-(4-fluoro)benzylpyridine] ; LD50 = 1100

LD50 measured on CCOC(=O)Nc1ccc(NCc2ccc(F)cc2)nc1N [Flupirtin, reference compound] = 1660
